Tested system: T1, CRF2R
T1 sequence (Q13324 whole entry, species assumed, looked up): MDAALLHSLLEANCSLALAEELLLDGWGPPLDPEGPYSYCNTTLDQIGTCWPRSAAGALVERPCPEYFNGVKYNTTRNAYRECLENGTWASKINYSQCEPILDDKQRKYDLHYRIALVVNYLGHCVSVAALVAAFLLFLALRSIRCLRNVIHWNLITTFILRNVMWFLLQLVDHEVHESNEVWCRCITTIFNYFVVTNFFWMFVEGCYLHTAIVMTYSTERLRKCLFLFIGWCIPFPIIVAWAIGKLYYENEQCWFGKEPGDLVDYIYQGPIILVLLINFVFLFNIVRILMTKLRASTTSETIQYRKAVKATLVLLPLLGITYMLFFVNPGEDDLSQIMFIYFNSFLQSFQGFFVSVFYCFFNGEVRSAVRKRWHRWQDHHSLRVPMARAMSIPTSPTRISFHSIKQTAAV
Test description: cell-based or functional assay
Ends that are not written are not given here.
Cut-off 60% on CRF2R Emax: below means condition met, at or above means condition not met.

For IVLSLDVPIGLLQILLEQARADAAREQATTNARILARV-NH2 [SEQ ID NO 130] , is the recorded CRF2R Emax below the cut-off of 60%?
condition not met

For ZGPPISIDLPFQLLRKMIEIEKQEKEKQQATTNRLLLARV (C-terminal amide) [SEQ ID NO 19] , is the recorded CRF2R Emax below the cut-off of 60%?
condition not met

For ZGPPISIDLPTELLRKMIEIEKQEKEKQQAANNRLLLDTI (C-terminal amide) [SEQ ID NO 71] , is the recorded CRF2R Emax below the cut-off of 60%?
condition met

For SQEPPISLDLPFELLREVLEMTKADQLAQQAHSNRKLLDIA-NH2 [SEQ ID NO 97] , is the recorded CRF2R Emax below the cut-off of 60%?
condition met

For SQEPPISLDLPFQLLREVLEMTKADQLAQQAHSNRKLLDIA-NH2 [SEQ ID NO 91] , is the recorded CRF2R Emax below the cut-off of 60%?
condition met

For ZGPPISIDLPYYLLRKMIEIEKQEKEKQQAANNRLLLDTI (C-terminal amide) [SEQ ID NO 40] , is the recorded CRF2R Emax below the cut-off of 60%?
condition not met

For ZGPPISIDLPIILLRKMIEIEKQEKEKQQAANNRLLLDTI (C-terminal amide) [SEQ ID NO 36] , is the recorded CRF2R Emax below the cut-off of 60%?
condition not met

For ZGPPISIDLPYHLLRKMIEIEKQEKEKQQAANNRLLLDTI (C-terminal amide) [SEQ ID NO 208] , is the recorded CRF2R Emax below the cut-off of 60%?
condition not met

For ZGPPISIDLPKYLLRKMIEIEKQEKEKQQAANNRLLLDTI (C-terminal amide) [SEQ ID NO 58] , is the recorded CRF2R Emax below the cut-off of 60%?
condition not met

For IVLSLDVPIGLLQILLEQEKEKKRKETNARILARV-NH2 [SEQ ID NO 132] , is the recorded CRF2R Emax below the cut-off of 60%?
condition not met

For IVLSLDVPIGLLQILLEQAAREQATTNARILARV-NH2 [SEQ ID NO 138] , is the recorded CRF2R Emax below the cut-off of 60%?
condition met

For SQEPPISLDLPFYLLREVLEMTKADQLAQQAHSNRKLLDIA-NH2 [SEQ ID NO 96] , is the recorded CRF2R Emax below the cut-off of 60%?
condition met
